Cited source: patent US10106556B2

Target: His-hMAGL (recombinant polyhistidine tagged human MAGL protein) (Homo sapiens)
Construct: made in house; host or cells: E. coli BL21(DE3)
Sequence (Q99685 1-303): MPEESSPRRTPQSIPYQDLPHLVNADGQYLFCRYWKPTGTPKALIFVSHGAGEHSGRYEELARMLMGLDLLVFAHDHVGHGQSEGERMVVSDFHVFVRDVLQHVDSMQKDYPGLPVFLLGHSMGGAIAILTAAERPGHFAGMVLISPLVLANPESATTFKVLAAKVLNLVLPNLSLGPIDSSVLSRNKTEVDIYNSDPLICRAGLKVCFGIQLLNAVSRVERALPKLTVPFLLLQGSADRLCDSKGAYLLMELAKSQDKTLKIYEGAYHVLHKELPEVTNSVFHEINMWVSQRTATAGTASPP
Test: Measurement of MAGL inhibitory activity (arachidonic acid production from 2-arachidonylglycerol, RapidFire-mass spectrometry)
Type: biochemical
Conditions: MAGL inhibitory rate at 10 μM test compound; 60 min preincubation with His-hMAGL, 2-arachidonylglycerol substrate, 10 min reaction at room temperature
The following compounds are listed with their measured inhibition at 10 µM values.
Just the number please, in %, no unit attached.

Please review the entries below; each comes with its answer.
INSERT INTO results (compound, target_entity, property_name, endpoint_result) VALUES
  ('N#CC1(COc2ccc(F)cc2Cl)CCN(C(=O)c2cc3c(cc2F)OCC(=O)N3)CC1 [Example 81]', 'His-hMAGL (recombinant polyhistidine tagged human MAGL protein) (Homo sapiens)', 'inhibition at 10 µM', 99),
  ('Cc1ccc(COC2CN(C(=O)c3cc4c(cc3F)OCC(=O)N4)C2)c(F)c1 [Example 350]', 'His-hMAGL (recombinant polyhistidine tagged human MAGL protein) (Homo sapiens)', 'inhibition at 10 µM', 101),
  ('O=C1COc2cc(F)c(C(=O)N3CC(COC4CCCCC4)C3)cc2N1 [Example 280]', 'His-hMAGL (recombinant polyhistidine tagged human MAGL protein) (Homo sapiens)', 'inhibition at 10 µM', 102),
  ('COc1cccc(COC2CN(C(=O)c3cc4c(cc3F)OCC(=O)N4)C2)c1 [Example 328]', 'His-hMAGL (recombinant polyhistidine tagged human MAGL protein) (Homo sapiens)', 'inhibition at 10 µM', 101),
  ('Cc1ccccc1OCC1CCN(C(=O)c2ccc3c(c2)NC(=O)CO3)CC1 [Example 34]', 'His-hMAGL (recombinant polyhistidine tagged human MAGL protein) (Homo sapiens)', 'inhibition at 10 µM', 98);

# input // returns reported inhibition at 10 µM for input O=C1COc2cc(F)c(C(=O)N3CC(COc4ccc(Cl)cc4-c4ccc(Cl)cn4)C3)cc2N1 [Example 196]
# output 94

# input inhibition at 10 µM for O=C1COc2ccc(C(=O)N3CCC(COc4cc(Cl)cc(Cl)c4)CC3)cc2N1 [Example 45] ?
# output 98

# input What inhibition at 10 µM value was documented for this compound, Cc1nn(C)c(C)c1-c1cc(Cl)ccc1OCC1CN(C(=O)c2cc3c(cc2F)OCC(=O)N3)C1 [Example 267] ?
# output 101

# input Entry under review: C=C(C)c1ccc(OCC2CCN(C(=O)c3cc4c(cc3F)OCC(=O)N4)CC2)c(Cl)c1 [Example 82] . Reported inhibition at 10 µM?
# output 101

# input For O=C1COc2cc(F)c(C(=O)N3CC(COc4cccc5scnc45)C3)cc2N1 [Example 105] , what is its reported inhibition at 10 µM?
# output 97

# input Return reported inhibition at 10 µM; argument: O=C1COc2cc(F)c(C(=O)N3CC(COc4ccc(Cl)cc4-c4ccccn4)C3)cc2N1 [Example 189]
# output 102

# input Could you share which inhibition at 10 µM value was measured for O=C1COc2ccc(C(=O)N3CCC(COc4ccnc(Cl)c4Cl)CC3)cc2N1 [Example 46] ?
# output 98

# input Could you tell me which inhibition at 10 µM is on file for O=C1COc2cc(F)c(C(=O)N3CC(OCc4ccccc4OC(F)F)C3)cc2N1 [Example 341] ?
# output 101

# input Sample Cc1nn(C)c(C)c1-c1ccc(OCC2CN(C(=O)c3cc4c(cc3F)OCC(=O)N4)C2)c(F)c1 [Example 251] — what was its inhibition at 10 µM?
# output 100

# input Any idea what inhibition at 10 µM was measured for Cc1ccc(OCC2CN(C(=O)c3cc4c(cc3F)OCC(=O)N4)C2)c(F)c1 [Example 164] ?
# output 102

# input Requested read-out: inhibition at 10 µM. Entry: O=C1COc2cc(F)c(C(=O)N3CC(COc4ccc5nccn5c4-c4ccc(F)cc4)C3)cc2N1 [Example 181]
# output 99

# input I would be grateful if you could share the reported inhibition at 10 µM for O=C1COc2ccc(C(=O)N3CCC(COc4ccc(OC(F)(F)F)cc4)CC3)cc2N1 [Example 55] .
# output 96

---

Target: His-hMAGL (recombinant polyhistidine tagged human MAGL protein) (Homo sapiens, UniProt Q99685)
Construct: made in house; host or cells: E. coli BL21(DE3)
Experiment: Measurement of MAGL inhibitory activity (arachidonic acid production from 2-arachidonylglycerol, RapidFire-mass spectrometry)
Format: biochemical
Settings: MAGL inhibitory rate at 10 μM test compound; 60 min preincubation with His-hMAGL, 2-arachidonylglycerol substrate, 10 min reaction at room temperature
PROPERTY_NAME: inhibition at 10 µM (%)
Just the number in %, nothing appended.

# input Would you kindly share the measured inhibition at 10 µM for Cc1cc(OCC2CN(C(=O)c3cc4c(cc3F)OCC(=O)N4)C2)n(-c2ccccn2)n1 ?
# output 94

# input Tell me the measured inhibition at 10 µM of O=C1COc2cc(F)c(C(=O)N3CC(COc4ccc(C(F)F)cc4F)C3)cc2N1 , please.
# output 101

# input I am curious: what inhibition at 10 µM value has been reported for Cn1cccc1-c1cc(Cl)ccc1OCC1CN(C(=O)c2cc3c(cc2F)OCC(=O)N3)C1 ?
# output 101

# input Returns the measured inhibition at 10 µM for the input compound. Input: Cc1ccncc1-c1cc(Cl)ccc1OCC1CN(C(=O)c2cc3c(cc2F)OCC(=O)N3)C1
# output 103

# input What does the record list as inhibition at 10 µM for Cc1nn(C)cc1-c1cc(Cl)ccc1OCC1CN(C(=O)c2cc3c(cc2F)OCC(=O)N3)C1 ?
# output 99

# input Value lookup for inhibition at 10 µM; key = O=C1COc2cc(F)c(C(=O)N3CC(OCc4ccc(F)cc4Cl)C3)cc2N1
# output 101

# input Would you kindly share the measured inhibition at 10 µM for O=C1COc2ccc(C(=O)N3CCC(COc4ccc(F)cc4Cl)CC3)cc2N1 ?
# output 101

# input Entry CN1CC=C(c2ccc(OCC3CN(C(=O)c4cc5c(cc4F)OCC(=O)N5)C3)c(F)c2)CC1 : reported inhibition at 10 µM = ?
# output 96

---

Target: His-hMAGL (recombinant polyhistidine tagged human MAGL protein) (Homo sapiens, UniProt Q99685)
Construct: made in house; host or cells: E. coli BL21(DE3)
Assay: Measurement of MAGL inhibitory activity (arachidonic acid production from 2-arachidonylglycerol, RapidFire-mass spectrometry)
Assay type: biochemical
Details: MAGL inhibitory rate at 10 μM test compound; 60 min preincubation with His-hMAGL, 2-arachidonylglycerol substrate, 10 min reaction at room temperature
PROPERTY_NAME: inhibition at 10 µM
Provide the measurement as a number trailed by its unit.

# input Which measured inhibition at 10 µM value corresponds to N#Cc1cc(OCC2CN(C(=O)c3cc4c(cc3F)OCC(=O)N4)C2)ccc1Cl [Example 133] ?
# output 98%

# input I have this molecule here, O=C1COc2ccc(C(=O)N3CC(OCc4ccc(F)cc4Cl)C3)cc2N1 [Example 323] , and I need its recorded inhibition at 10 µM.
# output 99%

# input Which value of inhibition at 10 µM has been reported for O=C1COc2cc(F)c(C(=O)N3CC(COc4c(F)cccc4Cl)C3)cc2N1 [Example 136] in the records?
# output 98%

---

Biological target: His-hMAGL (recombinant polyhistidine tagged human MAGL protein) (Homo sapiens)
Construct: made in house; host or cells: E. coli BL21(DE3)
Assay: Measurement of MAGL inhibitory activity (arachidonic acid production from 2-arachidonylglycerol, RapidFire-mass spectrometry)
Type: biochemical
Conditions: MAGL inhibitory rate at 10 μM test compound; 60 min preincubation with His-hMAGL, 2-arachidonylglycerol substrate, 10 min reaction at room temperature
PROPERTY_NAME: inhibition at 10 µM
Number first, unit second.

Check out these entries, answers already filled in.
INSERT INTO results (substance_smiles, endpoint_result) VALUES
  ('O=C1COc2cc(F)c(C(=O)N3CC(OCc4ccc(F)cc4)C3)cc2N1', '98%'),
  ('O=C1COc2ncc(C(=O)N3CCC(COc4cccc(Cl)c4)CC3)cc2N1', '99%');

# input Value lookup for inhibition at 10 µM; key = O=C1COc2cc(F)c(C(=O)N3CC(COCc4ccccc4Cl)C3)cc2N1
# output 102%

# input Form field: reported inhibition at 10 µM of O=C1COc2cc(F)c(C(=O)N3CC(COc4cccc(Cl)c4Cl)C3)cc2N1
# output 102%

# input What value of inhibition at 10 µM has been reported for the following compound? O=C1COc2cc(F)c(C(=O)N3CC(COc4ccc(Cl)c(Cl)c4)C3)cc2N1
# output 100%

# input Endpoint output: inhibition at 10 µM of O=C1COc2cc(F)c(C(=O)N3CC(COc4ccc(-c5ccnc(F)c5)cc4F)C3)cc2N1 . Value?
# output 102%

# input Consider the compound N#Cc1ccccc1OCC1CCN(C(=O)c2ccc3c(c2)NC(=O)CO3)CC1 and give its measured inhibition at 10 µM.
# output 98%

# input Look at this compound and give its reported inhibition at 10 µM. O=C1COc2ccc(C(=O)N3CCC(COc4ccccc4C4CC4)CC3)cc2N1
# output 96%
